Procedure summary: yeast display, Sf9 membrane polyspecificity reagent, FACS + sequencing; frameworks hold sequencing errors
Reported metric: polyreactivity (PSR sort gate)

1) QVQLVESGGGLVQAGGSLSLSCAASGSTFSLNTKGWYRQAPRKERELVAAITSGGSTNYADSVKGRFTISRDNAKNTVYLQMNSLKPEDTAVYYCAATPGRGGGYNYWGQGSQVTVSS : low polyreactivity
2) RVQLVQSGGGLVQAGGSLRLSCAASGRIFSYNAMGWYRQAPGKERELVAAITFSGGGTYYADSVKGRFTISRDNAKNTVYLQMNSLIPEDTAVYYCNKVSYGYSTYGYWGQGTQVTVSS : low polyreactivity
3) QVQLVESGGGIVQAGGSLRLSCAASGNTYRWYAMGWNIQAPGKEREFVADITVRGGSTYYADSVKGRFTISRDNAKNTVYLQMNSLKPEDTAVYYCAADYRYGGSRGYRYDYWGQGTQVTVSS : low polyreactivity
4) QVQLVESGGGLVQAGGSLRLSCAASGSTFVYNAMGGYSQAPGKERELGASISRGGGITYYADSVKGRFTISRDNAKNTVYLQMNSLKPEDTAVYYCAKTKGYRGHYYYWGQGTQVTVSS : high polyreactivity
5) QVQLVESGGGLVQAGGSLRLSCAASGFIFRVNALGGSRPAPGKERVLVAARISSSGSTYYADSVKGRFTISRDNAKNTVYLQMNSLKPEDTAVYYCAADPYYLQQFDYWGQGTQVTVSS : low polyreactivity

(Q) If you can, please state the reported polyreactivity (PSR sort gate) value of QVLLVESGGGLVQAGGTLRLSCADSGFTFVTYGMGWYRQEPGKERELVARISSSSTNYADSVKGRFTISRDNAKNTVYLQMKSLKPEDTEVYYCAAVHYRWWYRSAYDFWGQGTQVTVSS .
(A) low polyreactivity

(Q) If you can, please state the reported polyreactivity (PSR sort gate) value of QDQLVQSAGGLVQAGGSLRLSCAASGRTIRAYAMGWYRQAPGKEREFVAAITWGDGSTYYADSVNGRFTISRDNAKNTVYLQMKSLKPEDTAVYYCATVQSCRVRTYDYWGQGTQVSVSS .
(A) high polyreactivity

(Q) If you can, please state the reported polyreactivity (PSR sort gate) value of QVQLVESGGGLVQAGGSLRLSCAASGRIFVTYAMGWYRQAPGKERELVAAIPWDGDSTYYADSVKGRFTISRDNAKNTVYLQMNSLKPEDTAVYYCNAKKFNSHVELGYDYWGQGTQVTVSS .
(A) low polyreactivity
